Numbers sourced from paper PMC5923142.

- TARGET DESC: GV I109V mutant protease (Norovirus, UniProt Q80J95, I1103V)
- Construct: plasmids expressing norovirus protease from GI.1 (M87661), GII.4 (DQ658413), or GV (DQ285629) norovirus
- Sequence (Q80J95 995-1177 I1103V): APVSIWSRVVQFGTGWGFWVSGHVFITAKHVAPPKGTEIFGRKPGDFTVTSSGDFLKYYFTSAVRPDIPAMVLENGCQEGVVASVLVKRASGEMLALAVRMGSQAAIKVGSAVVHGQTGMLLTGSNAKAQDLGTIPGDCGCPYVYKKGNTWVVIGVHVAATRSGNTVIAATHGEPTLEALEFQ
- TEST PROTOCOL: Cell-based FRET assay, GV I109V protease
- CONDITION SUMMARY: HEK293T cells, GV NS1/2-NS3 FRET substrate
REPORTED PROPERTY: IC50 (µM)

| SMILES INPUT | U | MEASURED RESULT |
| --- | --- | --- |
| CCOC(=O)/C=C/[C@H](C[C@@H]1CCNC1=O)NC(=O)[C@@H](CC(=O)[C@@H](NC(=O)c1cc(C)on1)C(C)C)Cc1ccc(F)cc1 | µM | 2.7 |
